Target: Serotonin (5HT) reuptake (Rattus norvegicus)
Construct: synaptosomes are freshly isolated from areas of rat brain; from tissue; host or cells: rat brain synaptosomes (P2 fraction)
Sequence (P31652 whole entry): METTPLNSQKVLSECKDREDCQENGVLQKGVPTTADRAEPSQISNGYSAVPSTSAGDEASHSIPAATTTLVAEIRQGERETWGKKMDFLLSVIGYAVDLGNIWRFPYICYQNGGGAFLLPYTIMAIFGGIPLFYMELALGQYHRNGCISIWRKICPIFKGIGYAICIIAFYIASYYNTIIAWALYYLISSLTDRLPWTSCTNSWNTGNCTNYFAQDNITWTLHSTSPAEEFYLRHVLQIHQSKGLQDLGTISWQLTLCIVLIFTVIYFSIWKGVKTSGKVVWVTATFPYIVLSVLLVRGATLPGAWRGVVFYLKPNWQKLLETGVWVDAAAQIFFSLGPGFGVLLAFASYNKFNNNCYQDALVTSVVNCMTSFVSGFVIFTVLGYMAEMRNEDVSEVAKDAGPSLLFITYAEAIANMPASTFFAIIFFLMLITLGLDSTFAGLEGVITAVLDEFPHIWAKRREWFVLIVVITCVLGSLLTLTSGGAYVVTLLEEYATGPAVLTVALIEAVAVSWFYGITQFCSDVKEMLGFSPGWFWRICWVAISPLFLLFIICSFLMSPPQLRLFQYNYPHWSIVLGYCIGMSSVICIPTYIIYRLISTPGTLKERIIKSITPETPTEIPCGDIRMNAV
Assay: Serotonin (5HT) reuptake inhibition in rat brain synaptosomes (P2 fraction)
Type: biochemical
Settings: read-out: Serotonin reuptake, % inhibition [10 μM]
Counter-ions that a name gives are not always drawn.
property name: inhibition at 10 µM (%)
Quick note: give the figure in %, leave out the unit.

q: I am curious: what inhibition at 10 µM value has been reported for CN(C)C(c1ccc(F)cc1)C1CCC(CCN)CC1 (stereo not shown) ?
a: 97

q: For the compound CCOC(=O)CCC1CCC(C(c2cccc(F)c2)N(C)C)CC1 (stereo not shown) , what inhibition at 10 µM is on record?
a: 89

q: Data request, read-out inhibition at 10 µM, for CC(=O)N(CCCc1ccccc1)C1CCC(C(c2ccccc2)N(C)C)CC1 (stereo not shown) [compound 95, hydrochloride]
a: 66

q: Fill blank: measured inhibition at 10 µM of the compound CN(C)C(c1ccccc1)C1CCC(CCCO)CC1 (stereo not shown) is ____.
a: 86

q: What value of inhibition at 10 µM has been reported for the following compound? CN(C)C(c1ccccc1)C1CCC(C=O)CC1 (stereo not shown)
a: 85

q: Param item = CN(C)C(c1cccc(F)c1)C1CCC(C=O)CC1 (stereo not shown) ; retrieve measured inhibition at 10 µM.
a: 87

q: Consider the compound CN(C)C(c1cccs1)C1CCC(CCN)CC1 (stereo not shown) and give its measured inhibition at 10 µM.
a: 83

q: Reported inhibition at 10 µM for CN(C)C(c1cccc(F)c1)C1CCC(CN)CC1 (stereo not shown) : what is it?
a: 89

q: Reported inhibition at 10 µM, compound CN(C)C(CCc1ccccc1)C1CCC(CC=O)CC1 (stereo not shown) : ____
a: 70

q: Data request, read-out inhibition at 10 µM, for CN(C)C(c1cccc(F)c1)C1CCC(CO)CC1 (stereo not shown)
a: 88

====

Task for the reader: assign each of the following compounds its reported inhibition at 1 µM.
Molecular target: human μ-opiate receptor (Homo sapiens)
Sequence (P35372 whole entry): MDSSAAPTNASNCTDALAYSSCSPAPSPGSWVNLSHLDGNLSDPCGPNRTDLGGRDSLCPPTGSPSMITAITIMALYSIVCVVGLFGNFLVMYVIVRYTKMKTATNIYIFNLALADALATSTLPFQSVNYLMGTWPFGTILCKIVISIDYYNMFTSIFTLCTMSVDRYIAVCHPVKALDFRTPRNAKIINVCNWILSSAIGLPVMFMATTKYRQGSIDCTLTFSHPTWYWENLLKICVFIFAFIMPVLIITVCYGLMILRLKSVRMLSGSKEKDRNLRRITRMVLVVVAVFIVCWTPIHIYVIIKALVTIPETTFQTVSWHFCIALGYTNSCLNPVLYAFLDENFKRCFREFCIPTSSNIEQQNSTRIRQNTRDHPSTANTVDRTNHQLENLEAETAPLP
Assay: Affinity for the human μ-opiate receptor ([3H]-naloxone displacement, SPA, CHO-K1 membrane preparation)
Format: binding
Settings: read-out: μ-Opioid receptor, % inhibition [1 μM]
Value expressed in %; do not type the unit.

q: Which inhibition at 1 µM is listed for CN(C)C(c1ccccc1)C1CCC(CCNC(=O)c2ccc([N+](=O)[O-])cc2)CC1 (stereo not shown) ?
a: 93

q: Which inhibition at 1 µM reading was recorded for the compound CN(C)C(c1ccccc1)C1CCC(NC(=O)c2ccc(C(C)(C)C)cc2)CC1 (stereo not shown) ?
a: 90

q: Name the recorded inhibition at 1 µM for Cc1cc(C(=O)NC2CCC(C(c3cccs3)N(C)C)CC2)n(C(C)(C)C)n1 (stereo not shown) .
a: 94

q: For CN(C)C(c1cccc(F)c1)C1CCC(NC(=O)Cc2ccccc2)CC1 (stereo not shown) , what is its reported inhibition at 1 µM?
a: 82

q: Value lookup for inhibition at 1 µM; key = Cc1nc(-c2ccccc2)sc1C(=O)NC1CCC(C(c2cccc(F)c2)N(C)C)CC1 (stereo not shown)
a: 80

q: Entry CC(Oc1ccccc1)C(=O)NCC1CCC(C(c2cccs2)N(C)C)CC1 (stereo not shown) has what inhibition at 1 µM?
a: 99

q: Please report the recorded inhibition at 1 µM for CSc1ncccc1C(=O)NCCC1CCC(C(c2ccccc2)N(C)C)CC1 (stereo not shown) .
a: 86

q: So what's the measured inhibition at 1 µM for this one? CN(C)C(c1ccccc1)C1CCC(CNC(=O)CC(C)(C)C)CC1 (stereo not shown)
a: 100

q: Data request, read-out inhibition at 1 µM, for COc1cccc(OC)c1C(=O)NC1CCC(C(c2ccccc2)N(C)C)CC1 (stereo not shown)
a: 71

q: Look up inhibition at 1 µM for this compound: Cc1oc(-c2ccc(Cl)cc2)cc1C(=O)NC1CCC(C(c2cccs2)N(C)C)CC1 (stereo not shown)
a: 86

q: // query inhibition at 1 µM value for entry CN(C)C(c1ccc(F)cc1)C1CCC(CNC(=O)c2csc3ccccc23)CC1 (stereo not shown)
a: 90

q: Consider the compound shown here: CN(C)C(c1cccs1)C1CCC(NC(=O)c2cccc(C#N)c2)CC1 (stereo not shown) What is its recorded inhibition at 1 µM?
a: 100

q: # input compound: Cc1cc(C(=O)NC2CCC(C(c3cccs3)N(C)C)CC2)no1 (stereo not shown) ; wanted: its inhibition at 1 µM
a: 87

q: # get_value(readout='inhibition at 1 µM', item= CCSc1ncccc1C(=O)NCC1CCC(C(c2ccccc2)N(C)C)CC1 (stereo not shown) )
a: 98

q: # input compound: CN(C)C(c1ccccc1)C1CCC(NC(=O)c2cncc(Br)c2)CC1 (stereo not shown) ; wanted: its inhibition at 1 µM
a: 84

q: Which inhibition at 1 µM reading was recorded for the compound Cc1ccc(C(=O)NC2CCC(C(c3cccs3)N(C)C)CC2)cc1 (stereo not shown) ?
a: 95

q: Find the recorded inhibition at 1 µM belonging to CN(C)C(c1ccc(F)cc1)C1CCC(CCNC(=O)c2cccc(Br)c2)CC1 (stereo not shown) and report it.
a: 90

q: Looking for the measured inhibition at 1 µM of CN(C)C(c1ccccc1)C1CCC(CCNC(=O)c2csc(-c3ccccc3)n2)CC1 (stereo not shown) , can you help?
a: 104

q: Entry under review: CN(C)C(c1cccs1)C1CCC(CCNC(=O)c2c(Cl)cccc2Cl)CC1 (stereo not shown) . Reported inhibition at 1 µM?
a: 93

q: Using the record for CCC(C)C(=O)NCC1CCC(C(c2ccccc2)N(C)C)CC1 (stereo not shown) , report its inhibition at 1 µM.
a: 81

q: Entry CN(C)C(c1cccc(F)c1)C1CCC(CNC(=O)C2(c3ccc(Cl)cc3)CCCC2)CC1 (stereo not shown) : reported inhibition at 1 µM = ?
a: 94

q: What measured inhibition at 1 µM goes with CN(C)C(CCc1ccccc1)C1CCC(NC(=O)c2cc(F)ccc2F)CC1 (stereo not shown) ?
a: 74

q: I have this compound here, CN(C)C(CCc1ccccc1)C1CCC(NC(=O)c2cccc(Cl)c2)CC1 (stereo not shown) , and I need its recorded inhibition at 1 µM.
a: 82

q: Which inhibition at 1 µM is listed for Cc1onc(-c2c(Cl)cccc2Cl)c1C(=O)NCCC1CCC(C(c2cccs2)N(C)C)CC1 (stereo not shown) ?
a: 87

q: Name the reported inhibition at 1 µM value associated with the compound COc1c(C(=O)NCCC2CCC(C(c3ccc(F)cc3)N(C)C)CC2)csc1Cl (stereo not shown)
a: 97

q: Field request: inhibition at 1 µM | item: CN(C)C(c1ccccc1)C1CCC(NC(=O)C23CC4CC(CC(C4)C2)C3)CC1 (stereo not shown)
a: 83

q: inhibition at 1 µM lookup needed for CN(C)C(c1cccc(F)c1)C1CCC(NC(=O)c2csc(-c3ccccc3)n2)CC1 (stereo not shown) , thanks.
a: 78

q: Requested field: inhibition at 1 µM. Item: CN(C)C(c1ccccc1)C1CCC(NC(=O)c2cccs2)CC1 (single isomer, unassigned)
a: 82

q: What value of measured inhibition at 1 µM is listed for CN(C)C(c1cccc(F)c1)C1CCC(CCNC(=O)c2c(F)cccc2F)CC1 (stereo not shown) ?
a: 91

q: Reported inhibition at 1 µM, compound CCn1nc(C)c(Br)c1C(=O)NCC1CCC(C(c2cccs2)N(C)C)CC1 (stereo not shown) : ____
a: 84

q: So what's the measured inhibition at 1 µM for this one? CN(C)C(c1ccccc1)C1CCC(NC(=O)COc2ccc(Cl)cc2)CC1 (stereo not shown)
a: 72

q: Give the measured inhibition at 1 µM of CCn1nc(C)c(Br)c1C(=O)NC1CCC(C(c2ccccc2)N(C)C)CC1 (stereo not shown) .
a: 76

q: Recorded inhibition at 1 µM of CC(C)S(=O)(=O)c1csc(C(=O)NCC2CCC(C(c3cccs3)N(C)C)CC2)c1Cl (stereo not shown) , please.
a: 85

q: Requested read-out: inhibition at 1 µM. Entry: CN(C)C(c1ccccc1)C1CCC(CCNC(=O)c2ccc(Cl)cc2)CC1 (stereo not shown)
a: 88

====

Target: Noradrenaline (NA) reuptake (Rattus norvegicus, UniProt Q63380)
Construct: synaptosomes are freshly isolated from areas of rat brain; from tissue; host or cells: rat hypothalamus synaptosomes (P2 fraction)
Sequence (Q63380 1-617): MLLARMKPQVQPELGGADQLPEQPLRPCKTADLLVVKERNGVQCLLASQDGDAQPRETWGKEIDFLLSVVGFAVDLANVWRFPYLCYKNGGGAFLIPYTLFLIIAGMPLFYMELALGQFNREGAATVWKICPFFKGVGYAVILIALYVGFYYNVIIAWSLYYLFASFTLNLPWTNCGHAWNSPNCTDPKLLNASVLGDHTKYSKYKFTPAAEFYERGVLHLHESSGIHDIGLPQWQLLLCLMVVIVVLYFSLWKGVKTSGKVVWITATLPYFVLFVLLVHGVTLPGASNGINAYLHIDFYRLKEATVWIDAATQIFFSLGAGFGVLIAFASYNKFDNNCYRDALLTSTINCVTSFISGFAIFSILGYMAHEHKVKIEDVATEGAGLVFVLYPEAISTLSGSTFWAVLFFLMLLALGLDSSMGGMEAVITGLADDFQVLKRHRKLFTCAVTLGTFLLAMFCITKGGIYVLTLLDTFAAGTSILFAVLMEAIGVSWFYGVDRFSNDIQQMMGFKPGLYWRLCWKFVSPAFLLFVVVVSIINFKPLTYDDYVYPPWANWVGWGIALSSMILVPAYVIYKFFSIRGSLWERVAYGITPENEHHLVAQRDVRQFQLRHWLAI
Test: Noradrenaline (NA) reuptake inhibition in rat brain synaptosomes (hypothalamus, P2 fraction)
Type: biochemical
Details: read-out: NA reuptake, % inhibition [10 μM]
Counter-ions that a name gives are not always drawn.
property name: inhibition at 10 µM (%)
Expressed in %, but write only the number.

q: Would you kindly share the measured inhibition at 10 µM for CN(C)C(c1ccccc1)C1CCC(NC(=O)Nc2ccccc2)CC1.Cl (stereo not shown) [compound 78, hydrochloride] ?
a: 98

q: Param item = CN(C)C(c1ccc(F)cc1)C1CCC(CCO)CC1 (stereo not shown) ; retrieve measured inhibition at 10 µM.
a: 88

q: For CN(C)C(c1ccccc1)C1CCC(NC(=O)Nc2cccc(Br)c2)CC1 (stereo not shown) [compound 77, hydrochloride] , what is its reported inhibition at 10 µM?
a: 93

q: So what's the measured inhibition at 10 µM for this one? CN(C)C(c1ccccc1)C1CCC(NC(=O)Nc2cccc(C(F)(F)F)c2)CC1 (stereo not shown) [compound 75, hydrochloride]
a: 88
